biological target: T1, recombinant C-terminally truncated RSV (A2 strain) F protein (RSV (A2 strain), UniProt P03420 26-524); assay: SPR (BIAcore), Fab over immobilised F
T1 construct: extracellular domain; also called truncated F protein; extracellular domain of the F protein from RSV A2
T1 sequence (P03420 26-109, chain 1 of 2): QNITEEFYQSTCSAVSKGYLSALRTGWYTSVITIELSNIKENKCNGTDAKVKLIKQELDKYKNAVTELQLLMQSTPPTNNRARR
T1 sequence (P03420 137-524, chain 2 of 2): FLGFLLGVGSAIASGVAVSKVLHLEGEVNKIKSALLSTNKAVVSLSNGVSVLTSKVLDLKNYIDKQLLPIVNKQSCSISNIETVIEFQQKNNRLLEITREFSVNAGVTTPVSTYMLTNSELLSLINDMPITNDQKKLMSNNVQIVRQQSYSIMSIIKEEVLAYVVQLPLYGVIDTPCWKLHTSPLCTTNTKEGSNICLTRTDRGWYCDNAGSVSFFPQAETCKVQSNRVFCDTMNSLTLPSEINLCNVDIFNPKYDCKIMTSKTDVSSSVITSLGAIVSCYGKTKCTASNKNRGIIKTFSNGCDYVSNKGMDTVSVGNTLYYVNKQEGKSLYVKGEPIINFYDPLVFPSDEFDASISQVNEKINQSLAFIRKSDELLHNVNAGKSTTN
koff values for the binders below.

>  <binder>
A3e2 Fab (Fab, V domains shown) VH: QVTLRESGPALVKPTQTLTLTCTFSGFSLSTAGMSVGWIRQPPGKALEWLADIWWGDKGHYNPSLKDRLTISKDTSKNQVVLKVTNMDPADTATYYCARDMIFNWYFDVWGQGTTVTVSS VL: DIQMTQSPSTLSASVGDRVTITCSASSSVGYMHWYQQKPGKAPKLLIYDTFYLHSGVPSRFSGSGSGTEFTLTISSLQPDDFATYYCFQGSGYPFTFGGGTKVEIK

>  <koff, s⁻¹>
9.4e-05

$$$$
>  <binder>
A16b4 Fab (Fab, V domains shown) VH: QVTLRESGPALVKPTQTLTLTCTFSGFSLSTAGMSVGWIRQPPGKALEWLADIWWDDKKHYNPSLKDRLTISKDTSKNQVVLKVTNMDPADTATYYCARDMIFNWYFDVWGQGTTVTVSS VL: DIQMTQSPSTLSASVGDRVTITCLLSSRVGYMHWYQQKPGKAPKLLIYDTMYQASGVPSRFSGSGSGTEFTLTISSLQPDDFATYYCFQGSGYPFTFGGGTKVEIK

>  <koff, s⁻¹>
0.000105

$$$$
>  <binder>
A17d4(1) Fab (Fab, V domains shown) VH: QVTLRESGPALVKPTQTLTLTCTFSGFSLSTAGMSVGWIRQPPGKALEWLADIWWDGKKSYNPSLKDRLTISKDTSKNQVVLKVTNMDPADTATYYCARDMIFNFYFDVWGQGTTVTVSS VL: DIQMTQSPSTLSASVGDRVTITCLPSSRVGYMHWYQQKPGKAPKLLIYDTMYQSSGVPSRFSGSGSGTEFTLTISSLQPDDFATYYCFQGSGYPFTFGGGTKVEIK

>  <koff, s⁻¹>
5.9e-05

$$$$
